Record form. Attribute: Plant response rating, Soybean. Fill in for each entry.
# Test system: soybean
# protocol_details: Test C preemergence/postemergence greenhouse plant response rating 0 to 100
# Assay type: in vivo, Glycine max
# condition_parameters: POSTEMERGENCE, 62 g/ha, 0 to 100 scale
Answers are plain numbers.

Study these solved cases before continuing.
>  <compound>
C#CCN1C(=O)COc2cc(F)c(-c3nn4c(c3Br)CCCC4)cc21

>  <assay_result>
95

$$$$
>  <compound>
CCOC(=O)COc1cc(-c2nn3c(c2Cl)CCCC3)c(F)cc1Cl

>  <assay_result>
60

$$$$
>  <compound>
CC(C)COc1cc(-c2nn3c(c2Cl)CCCC3)c(F)cc1Cl

>  <assay_result>
50

$$$$
>  <compound>
C#CC(C)Oc1cc(-c2nn3c(c2Br)CCCC3)c(F)cc1Cl (centres unmarked)

>  <assay_result>
60

$$$$
>  <compound>
CC(C)OC(=O)c1cc(-c2nn3c(c2Cl)CCCC3)c(F)cc1Cl

>  <assay_result>
50

$$$$

// for each compound in input: emit Plant response rating, Soybean
1. C=CCN1C(=O)COc2cc(F)c(-c3nn4c(c3Cl)CCCC4)cc21
2. C=CCN1C(=O)COc2cc(F)c(-c3nn4c(c3Br)CCCC4)cc21

## Output
1. 100
2. 70

## Input Request the reported Plant response rating, Soybean associated with COCN1C(=O)COc2cc(F)c(-c3nn4c(c3Cl)CCCC4)cc21
## Output 95

###

# System: giant foxtail
# protocol_details: Test B preemergence/postemergence greenhouse plant response rating 0 to 10
# Format: in vivo, Setaria faberii
# condition_parameters: PREEMERGENCE, Rate 50 g/ha; 0 to 10 scale
Record form. Attribute: Plant response rating, Giant foxtail. Fill in for each entry.

Study these solved cases before continuing.
>  <compound>
COC(=O)C(C)Oc1cc(-c2nn3c(c2Cl)CCCC3)c(F)cc1Cl (stereo not drawn) [Compound 28]

>  <recorded_metric>
Plant response rating, Giant foxtail

>  <assay_result>
0

$$$$
>  <compound>
CC(C)OC(=O)c1cc(-c2nn3c(c2Cl)CCCC3)c(F)cc1Cl [Compound 44]

>  <recorded_metric>
Plant response rating, Giant foxtail

>  <assay_result>
7

$$$$
>  <compound>
CC(C)Oc1cc(-c2nn3c(c2Cl)CCCC3)c(F)cc1Cl [Compound 21]

>  <recorded_metric>
Plant response rating, Giant foxtail

>  <assay_result>
5

$$$$
>  <compound>
C#CCOC(=O)COc1cc(-c2nn3c(c2Cl)CCCC3)c(F)cc1Cl [Compound 61]

>  <recorded_metric>
Plant response rating, Giant foxtail

>  <assay_result>
0

$$$$
>  <compound>
C=CCN1C(=O)COc2cc(F)c(-c3nn4c(c3Cl)CCCC4)cc21 [Compound 33]

>  <recorded_metric>
Plant response rating, Giant foxtail

>  <assay_result>
7

$$$$
>  <compound>
O=C1COc2cc(F)c(-c3nn4c(c3Cl)CCCC4)cc2N1 [Compound 51]

>  <recorded_metric>
Plant response rating, Giant foxtail

>  <assay_result>
2

$$$$

// for each compound in input: emit Plant response rating, Giant foxtail
1. FCCCOc1cc(-c2nn3c(c2Cl)CCCC3)c(F)cc1Cl [Compound 79]
2. CCOC(=O)COc1cc(-c2nn3c(c2Cl)CCCC3)c(F)cc1Cl [Compound 42]
3. CCCCN1C(=O)COc2cc(F)c(-c3nn4c(c3Cl)CCCC4)cc21 [Compound 57]

## Output
[3, 0, 2]

###

# Test system: purple nutsedge
# protocol_details: Test B preemergence/postemergence greenhouse plant response rating 0 to 10
# Assay type: in vivo, Cyperus rotundus
# condition_parameters: POSTEMERGENCE, Rate 50 g/ha; 0 to 10 scale
# Excerpt: Seeds of barley (Hordeum vulgare), barnyardgrass (Echinochloa crus-galli), bedstraw (Galium aparine), blackgrass (Alopecurus myosuroides), […] […] Treated plants and controls were maintained in a greenhouse for twelve to sixteen days, after which all species were compared to controls and visually evaluated. […]
recorded_metric: Plant response rating, Nutsedge
One number for each entry.

Study these solved cases before continuing.
>  <compound>
FCCCOc1cc(-c2nn3c(c2Cl)CCCC3)c(F)cc1Cl

>  <recorded_metric>
Plant response rating, Nutsedge

>  <assay_result>
0

$$$$
>  <compound>
CCOC(=O)COc1cc(-c2nn3c(c2Cl)CCCC3)c(Cl)cc1Cl

>  <recorded_metric>
Plant response rating, Nutsedge

>  <assay_result>
2

$$$$
>  <compound>
COCN1C(=O)COc2cc(F)c(-c3nn4c(c3Cl)CCCC4)cc21

>  <recorded_metric>
Plant response rating, Nutsedge

>  <assay_result>
2

$$$$
>  <compound>
CCN1C(=O)COc2cc(F)c(-c3nn4c(c3Cl)CCCC4)cc21

>  <recorded_metric>
Plant response rating, Nutsedge

>  <assay_result>
2

$$$$
>  <compound>
Fc1cc(Cl)ccc1-c1nn2c(c1Br)CCCC2

>  <recorded_metric>
Plant response rating, Nutsedge

>  <assay_result>
3

$$$$
>  <compound>
C#CC(C)Oc1cc(-c2nn3c(c2Br)CCCC3)c(F)cc1Cl (stereo not drawn)

>  <recorded_metric>
Plant response rating, Nutsedge

>  <assay_result>
2

$$$$
>  <compound>
O=C1COc2cc(F)c(-c3nn4c(c3Br)CCCC4)cc2N1

>  <recorded_metric>
Plant response rating, Nutsedge

>  <assay_result>
2

$$$$
>  <compound>
C=CCN1C(=O)COc2cc(F)c(-c3nn4c(c3Br)CCCC4)cc21

>  <recorded_metric>
Plant response rating, Nutsedge

>  <assay_result>
4

$$$$

## Input Request the reported Plant response rating, Nutsedge associated with C=CCOC(=O)COc1cc(-c2nn3c(c2Cl)CCCC3)c(F)cc1Cl
## Output 0

###

# Test system: corn
# protocol_details: Test C preemergence/postemergence greenhouse plant response rating 0 to 100
# Format: in vivo, Zea mays
# condition_parameters: POSTEMERGENCE; Rate 1 g/ha
Record form. Attribute: Plant response rating (0 to 100), Corn. Fill in for each entry.
One number for each entry.

Study these solved cases before continuing.
>  <compound>
C#CC(C)N1C(=O)COc2cc(F)c(-c3nn4c(c3Cl)CCCC4)cc21 (stereo not shown)

>  <Plant response rating (0 to 100), Corn>
20

$$$$
>  <compound>
COCN1C(=O)COc2cc(F)c(-c3nn4c(c3Cl)CCCC4)cc21

>  <Plant response rating (0 to 100), Corn>
30

$$$$
>  <compound>
CC(C)Oc1cc(-c2nn3c(c2Br)CCCC3)c(F)cc1Cl

>  <Plant response rating (0 to 100), Corn>
10

$$$$

Query compound follows.
## Input Request the reported Plant response rating (0 to 100), Corn associated with CC(C)N1C(=O)COc2cc(F)c(-c3nn4c(c3Cl)CCCC4)cc21
## Output 20

###

Record form. Attribute: Plant response rating, Dallisgrass. Fill in for each entry.
# Test system: dallisgrass
# protocol_details: Test G preemergence/postemergence greenhouse plant response rating 0 to 100
# Format: in vivo, Paspalum dilatatum
# condition_parameters: PREEMERGENCE, Rate 125 g/ha, 0 to 100 scale
Numbers only.

Study these solved cases before continuing.
>  <compound>
CC(C)Oc1cc(-c2nn3c(c2Cl)CCCC3)c(F)cc1Cl

>  <Plant response rating, Dallisgrass>
20

$$$$
>  <compound>
Fc1cc(Cl)c(OC2CCCC2)cc1-c1nn2c(c1Cl)CCCC2

>  <Plant response rating, Dallisgrass>
20

$$$$
>  <compound>
COC(=O)C(C)Oc1cc(-c2nn3c(c2Cl)CCCC3)c(F)cc1Cl (stereo not shown)

>  <Plant response rating, Dallisgrass>
0

$$$$

Query compound follows.
## Input Request the reported Plant response rating, Dallisgrass associated with COc1cc(-c2nn3c(c2Cl)CCCC3)c(F)cc1Cl
## Output 80

###

# Test system: giant foxtail
# protocol_details: Test B preemergence/postemergence greenhouse plant response rating 0 to 10
# Format: in vivo, Setaria faberii
# condition_parameters: Rate 200 g/ha, POSTEMERGENCE; 0 to 10 scale
Record form. Attribute: Plant response rating, Giant foxtail. Fill in for each entry.

>  <compound>
CC(C)OC(=O)COc1cc(-c2nn3c(c2Cl)CCCC3)c(F)cc1Cl [Compound 39]

>  <Plant response rating, Giant foxtail>
5

$$$$

// for each compound in input: emit Plant response rating, Giant foxtail
1. CC(C)OC(=O)c1cc(-c2nn3c(c2Cl)CCCC3)c(F)cc1Cl [Compound 44]
2. Oc1cc(-c2nn3c(c2Cl)CCCC3)c(Cl)cc1Cl [Compound 68]
3. CC(C)OC(=O)COc1cc(-c2nn3c(c2Br)CCCC3)c(F)cc1Cl [Compound 64]
4. C=CCOc1cc(-c2nn3c(c2Cl)CCCC3)c(Cl)cc1Cl [Compound 71]

## Output
9
4
3
6
